- systemUnderTest: Transient receptor potential cation channel subfamily A member 1 (Homo sapiens)
- Sequence (O75762 whole entry): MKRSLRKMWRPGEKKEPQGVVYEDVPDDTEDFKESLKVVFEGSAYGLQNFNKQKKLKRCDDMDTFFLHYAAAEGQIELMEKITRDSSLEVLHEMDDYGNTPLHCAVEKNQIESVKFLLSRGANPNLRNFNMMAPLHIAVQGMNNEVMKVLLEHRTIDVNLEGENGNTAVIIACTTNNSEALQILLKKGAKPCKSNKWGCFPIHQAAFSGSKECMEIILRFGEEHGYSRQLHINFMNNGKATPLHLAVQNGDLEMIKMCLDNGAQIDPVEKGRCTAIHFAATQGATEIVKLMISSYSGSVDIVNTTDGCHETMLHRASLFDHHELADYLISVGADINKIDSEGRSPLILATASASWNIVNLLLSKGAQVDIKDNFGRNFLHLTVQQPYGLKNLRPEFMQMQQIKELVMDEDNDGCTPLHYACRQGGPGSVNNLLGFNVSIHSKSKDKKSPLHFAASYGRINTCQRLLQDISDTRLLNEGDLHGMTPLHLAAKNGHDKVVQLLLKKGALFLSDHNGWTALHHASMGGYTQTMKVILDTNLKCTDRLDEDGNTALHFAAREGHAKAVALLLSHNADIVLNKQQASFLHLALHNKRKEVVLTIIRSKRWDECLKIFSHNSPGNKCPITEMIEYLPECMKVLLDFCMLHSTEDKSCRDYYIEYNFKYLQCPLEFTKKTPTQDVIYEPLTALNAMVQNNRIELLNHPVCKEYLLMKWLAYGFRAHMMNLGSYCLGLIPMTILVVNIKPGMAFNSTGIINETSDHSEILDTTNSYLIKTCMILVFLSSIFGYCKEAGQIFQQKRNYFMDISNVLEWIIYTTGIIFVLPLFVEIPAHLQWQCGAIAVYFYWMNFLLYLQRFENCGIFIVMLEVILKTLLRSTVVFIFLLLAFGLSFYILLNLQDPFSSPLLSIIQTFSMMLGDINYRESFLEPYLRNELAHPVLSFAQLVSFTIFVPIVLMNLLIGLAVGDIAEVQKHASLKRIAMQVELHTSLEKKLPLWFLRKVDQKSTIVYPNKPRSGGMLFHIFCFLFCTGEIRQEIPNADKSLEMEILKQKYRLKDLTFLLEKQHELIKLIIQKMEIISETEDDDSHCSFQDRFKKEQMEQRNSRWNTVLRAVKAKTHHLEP
- assayNotes: Antagonist activity at human TRPA1 expressed in HEK293 cells assessed as inhibition of 5H-dibenzo[b,e]azepine-10-carboxylic acid methyl ester-induced increase in intracellular calcium by Fluo4-AM based fluorometric assay
pIC50: −log10 of the molar value.
endpoint: pIC50

Some compounds with known pIC50 results, for comparison:
# compound, systemUnderTest, experimentalResult
records = [
    ("S=C1N=C2CCCC2C(c2ccccc2)N1 (stereo unspecified)", "Transient receptor potential cation channel subfamily A member 1 (Homo sapiens)", "< 5.00"),
    ("O=C1N=C2c3ccccc3C(=O)C2C(c2ccccc2)N1 (stereo unspecified)", "Transient receptor potential cation channel subfamily A member 1 (Homo sapiens)", "< 5.00"),
    ("S=C1N=C(c2ccccc2)CC(c2ccccc2)N1 (stereo unspecified)", "Transient receptor potential cation channel subfamily A member 1 (Homo sapiens)", "< 5.00"),
    ("COc1ccc(OC)c(C2NC(=S)N=C3c4ccccc4C(=O)C32)c1 (stereo unspecified)", "Transient receptor potential cation channel subfamily A member 1 (Homo sapiens)", "< 5.00"),
    ("CN(C)CCCOc1cccc(C2NC(=S)N=C3c4ccccc4C(=O)C32)c1 (stereo unspecified)", "Transient receptor potential cation channel subfamily A member 1 (Homo sapiens)", "< 5.00"),
    ("O=C(O)c1cccc(C2NC(=S)N=C3c4ccccc4C(=O)C32)c1 (stereo unspecified)", "Transient receptor potential cation channel subfamily A member 1 (Homo sapiens)", "< 5.00"),
]

Could you report pIC50 for every entry in the following list?
1. CC1=NC(=S)NC(c2ccccc2)C1C(=O)c1ccccc1 (stereo unspecified)
2. O=C1CCCC2=NC(=S)NC(c3ccccc3)C12 (stereo unspecified)
3. S=C1N=C2CCCCC2C(c2ccccc2)N1 (stereo unspecified)
4. S=C1N=C2C(=Cc3ccccc3)CCCC2C(c2ccccc2)N1 (stereo unspecified)
5. S=C1N=C2c3ccccc3CCC2C(c2ccccc2)N1 (stereo unspecified)

## Result
1. < 5.00
2. < 5.00
3. < 5.00
4. < 5.00
5. < 5.00
